- system-name: human ether-à-go-go-related gene (hERG) potassium channel (human, UniProt Q12809);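 note: peak tail current of the secondary pulse compared with the same well before compound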
- Sequence (Q12809 whole entry, looked up): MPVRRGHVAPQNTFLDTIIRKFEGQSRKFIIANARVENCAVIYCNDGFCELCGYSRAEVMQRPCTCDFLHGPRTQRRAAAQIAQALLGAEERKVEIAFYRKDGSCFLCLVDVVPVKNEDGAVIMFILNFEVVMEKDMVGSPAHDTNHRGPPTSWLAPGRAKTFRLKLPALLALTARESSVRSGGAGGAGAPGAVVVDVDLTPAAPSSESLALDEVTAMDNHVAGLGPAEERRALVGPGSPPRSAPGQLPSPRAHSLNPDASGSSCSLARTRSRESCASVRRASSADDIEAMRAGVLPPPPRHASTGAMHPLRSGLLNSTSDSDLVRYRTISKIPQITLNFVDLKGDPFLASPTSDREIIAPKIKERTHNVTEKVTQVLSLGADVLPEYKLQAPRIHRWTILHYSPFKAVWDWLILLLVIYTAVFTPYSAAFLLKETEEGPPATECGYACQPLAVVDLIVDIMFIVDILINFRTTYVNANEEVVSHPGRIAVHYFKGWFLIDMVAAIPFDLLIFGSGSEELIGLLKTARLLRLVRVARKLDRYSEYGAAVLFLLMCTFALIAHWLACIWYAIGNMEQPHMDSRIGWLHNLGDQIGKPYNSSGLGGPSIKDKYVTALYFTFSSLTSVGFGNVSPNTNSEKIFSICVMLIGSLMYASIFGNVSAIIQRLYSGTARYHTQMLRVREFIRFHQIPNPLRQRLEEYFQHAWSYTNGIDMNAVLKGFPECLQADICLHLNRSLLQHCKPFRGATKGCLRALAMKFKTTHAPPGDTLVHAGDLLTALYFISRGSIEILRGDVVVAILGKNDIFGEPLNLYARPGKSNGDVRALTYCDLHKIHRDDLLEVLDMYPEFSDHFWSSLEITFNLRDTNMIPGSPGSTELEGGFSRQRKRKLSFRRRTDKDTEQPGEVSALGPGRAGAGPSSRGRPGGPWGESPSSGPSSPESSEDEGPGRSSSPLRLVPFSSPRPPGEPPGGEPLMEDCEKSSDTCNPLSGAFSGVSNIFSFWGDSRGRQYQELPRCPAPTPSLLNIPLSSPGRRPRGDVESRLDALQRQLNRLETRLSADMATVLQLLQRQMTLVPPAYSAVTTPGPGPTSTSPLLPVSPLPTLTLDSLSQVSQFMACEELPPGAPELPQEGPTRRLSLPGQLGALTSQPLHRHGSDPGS
- experiment-description: primary screen, population patch clamp on CHO cells stably expressing hERG; higher = less effect of the substance
The campaign covered roughly 310,000 compounds. About 14,000 (4.5%) showed an effect of 50% or more. Effects have a minus sign here. The sample holds strong results, similar compounds and a random draw of the others, so the mix is not that of the screen.
Measured hERG current change (%, negative = inhibition) at 10uM, listed per entry for reference.
Please respond with the number in % and leave the unit unwritten.

Below: 3 compounds and their reported hERG current change (%, negative = inhibition) at 10uM.
O=C(NCc1ccco1)c1ccc([N+](=O)[O-])cc1Cl | -3.96
Cc1ccc(S(=O)(=O)N2CCCCC2C(=O)O)cc1 (stereo not shown) | 6.47
CSCCC(NC(=O)c1ccc(Cl)cc1)C(=O)OCC(=O)NCc1ccco1 (stereo not shown) | -23.8

# input Please report the recorded hERG current change (%, negative = inhibition) at 10uM for CSCCC(NC(=O)c1ccc(Cl)cc1Cl)C(=O)OC(C)C(=O)NCc1ccco1 (stereo not shown) .
# output -51.8

# input Could you do the same for O=C1C2CCCN2C(=O)N1CCCN1CCN(c2ccc([N+](=O)[O-])cc2)CC1 (stereo not shown) , please?
# output -68.3

# input Could you do the same for CSCCC(NC(=O)c1ccc(Cl)cc1Cl)C(=O)OCC(N)=O (stereo not shown) , please?
# output -5.4

# input Could you do the same for Cl.Nc1ccc(N2CCN(CCCCN3C(=O)C4CCCN4C3=O)CC2)cc1.O (stereo not shown) , please?
# output -9.33

# input Could you do the same for CCCc1nnc(SCC(=O)N2CCOCC2)n1CC1CCCO1 (stereo not shown) , please?
# output 23.6

# input Could you do the same for COc1ccc(NC(=O)CN(C)S(=O)(=O)c2cccc3nsnc23)cc1OC , please?
# output -10.3

# input Could you do the same for CSCCC(NC(=O)c1ccc([N+](=O)[O-])cc1Cl)C(=O)OCC(=O)N(C)C (stereo not shown) , please?
# output -2.34

Hey, just so you know, these numbers are from paper PMC4336329.
